Molecular target: T1, human TL1A (HuTL1A) (human, UniProt O95150 57-251, limits assumed, biotin-labelled in some assays (site not stated))
T1 construct: Expressed in EXPI-293 cells and purified by Ni-NTA (His-tag); Described as a trimeric antigen; also called TL1A antigen; WT
T1 sequence: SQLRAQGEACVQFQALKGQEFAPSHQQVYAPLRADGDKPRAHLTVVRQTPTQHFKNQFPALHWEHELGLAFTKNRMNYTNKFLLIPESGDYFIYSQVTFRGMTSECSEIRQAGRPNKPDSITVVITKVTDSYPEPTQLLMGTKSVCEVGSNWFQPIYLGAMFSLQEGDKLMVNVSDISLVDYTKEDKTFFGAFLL
Experiment: DLS, antigen and antibody mixed in equal moles
value type: Ave Z-dia (nm) of the antigen-antibody complex
Give bare numbers, in nm.

M701-3876 (antibody, human IgG1, kappa, L234A L235A, V domains shown, Fc-engineered IgG1) VH: EVQLQESGPGLVKPSETLSLTCAVSGVSYSDYHWAWIRQPPGKGLEWIGDINHKGKTNYNPSLKSRVTISVDTSKNQFSLKLSSVTAADTAVYYCARDYPNFLFDYWGQGTLVTVSS VL: AIQMTQSPGTLSLSPGERATLSCRASQSVSSHLAWYQQKPGQAPRLLIYGASRRATGIPARFSGSGSGTDFTLTISRLEPEDFAVYYCQQYADSPLTFGQGTKVEIKR :: 18.7
M701-4019 (antibody, human IgG1, kappa, L234A L235A, V domains shown, Fc-engineered IgG1) VH: ELQLQESGPGLVKPSETLSLTCAVSGVSFTDYHWAWIRQPPGKGLEWIGDINHRGHTNYNPSLKSRVTVSIDTSKNQFSLKLSSVTAADTAVYYCARDYPNFIYDYWGQGTLVTVSS VL: DIQLTQSPGTLSLSPGERATLSCRASQSVSNYLAWYQQKPGQAPRLLIYGASRRATGIPARFSGSGSGTDFTLTISSLEPEDFAVYYCQQYAASPLTFGQGTKVEIKR :: 18.5
M701-4007 (antibody, human IgG1, kappa, L234A L235A, V domains shown, Fc-engineered IgG1) VH: ELQLQESGPGLVKPSETLSLTCAVSGVSFSDYHWAWIRQPPGKGLEWIGDINHRGHTNYNPSLKSRVTVSIDTSKNQFSLKLSSVTAADTAVYFCARDFPNFIFDFWGQGTLVTVSS VL: DIQLTQSPGTLSLSPGERATLSCRASQSVSTYLAWYQQKPGQAPRLLIYGASKRATGIPDRFSGSGSGTDFTLTISRLEPEDFAVYYCQQYGDSPLTFGQGTKVEIKR :: 18.7

Please look at the following binder next.
Q: Data request, read-out Ave Z-dia (nm) of the antigen-antibody complex, for M701-3912 (antibody, human IgG1, kappa, L234A L235A, V domains shown, Fc-engineered IgG1) VH: ELQLQESGPGLVKPSETLSLTCAVSGISFNDFHWAWIRQPPGKGLEWIGDINHRGHTSYNPSLKSRVTVSVDTSKNQFSLKLSSVTAADTAVYYCARDYPNFTFDLWGQGTLVTVSS VL: DIQMTQSPATLSLSPGERATLSCRASQSVSTYLAWYQQKPGQAPRLLIYGASRRATGIPARFSGSGSGTDFTLTISSLQSEDFAVYYCQQYGDTPLTFGQGTKVEIKR
Ans: 18.5
